- assay_text: Plasma pharmacokinetics in orthotopic 4T1 tumor-bearing mice
- Type: in vivo, BALB/c mice
- protocol_conditions: BALB/c, mouse, iv, 2 mg/kg
measured_attribute: AUC (ng·h/mL)

compound	measured_attribute	reported_measurement
O=C1CCC[C@@H]2[C@H]3CCC[N+]4([O-])CCC[C@@H](CN12)[C@@H]34 (stereo partly shown) [Free Om, oxymatrine]	AUC	1.01

====

- assay_text: Plasma pharmacokinetics in orthotopic 4T1 tumor-bearing mice
- Format: in vivo, BALB/c mice
- protocol_conditions: BALB/c, mouse, iv, 2 mg/kg
measured_attribute: Cmax

molecule	reported_measurement
O=C1CCC[C@@H]2[C@H]3CCC[N+]4([O-])CCC[C@@H](CN12)[C@@H]34 (stereo partly shown) [Free Om, oxymatrine]	1.75 ng/mL
